This section presents compounds with their documented Test B rating (% disease control) values.
- Test system: Botrytis cinerea
- Experiment: Test B: tomato Botrytis, preventive spray on tomato seedlings, visual disease rating
- Assay conditions: tomato Botrytis; 100 = 100% disease control, 0 = no control relative to controls
Provide only the numeric value, understood in %.

Worked examples, 6 compounds total:
COc1cc(F)c(Nc2c(-c3c(F)cccc3Cl)c(C)nn2C)c(F)c1 :: 99
Cc1nn(C)c(Oc2c(F)cc(C#N)cc2F)c1-c1cccc(Cl)c1Cl :: 0
Cc1nn(C)c(Nc2c(F)cc(F)cc2F)c1-c1ccccc1Br :: 99
Cc1nn(C)c(Nc2c(F)cc(F)cc2F)c1-c1c(F)cccc1F :: 100
Cc1nn(C)c(Nc2cnc(Cl)nc2)c1-c1ccc(F)cc1Cl :: 95
Cc1nn(C)c(Nc2ccc(F)cc2F)c1-c1c(F)cccc1F :: 100

Prompt: Please supply the value of reported Test B rating (% disease control) for the item Cc1nn(C)c(Nc2ncc(Cl)cc2Cl)c1-c1c(F)cccc1Cl
Response: 100

Prompt: Please supply the value of reported Test B rating (% disease control) for the item COc1ccc(Nc2c(-c3ccc(F)cc3F)c(C)nn2C)c(Cl)c1
Response: 99

Prompt: Please supply the value of reported Test B rating (% disease control) for the item Cc1nn(C)c(Oc2ncc(F)cc2F)c1-c1ccc(F)cc1Cl
Response: 99

====

- System: Septoria nodorum
- Experiment: Test F: Septoria glume blotch, preventive spray on wheat seedlings, visual disease rating
- Assay conditions: Septoria glume blotch on wheat; 100 = 100% disease control, 0 = no disease control relative to controls
This section presents compounds with their documented Test F disease control rating values.
Provide only the numeric value, understood in %.

Cc1nn(C)c(Nc2ccc(Cl)cc2Cl)c1-c1c(Cl)cccc1Cl :: 0

Prompt: Please supply the value of reported Test F disease control rating for the item Cc1nn(C)c(Nc2c(Cl)cc(F)cc2Cl)c1-c1ccc(F)cc1Br
Response: 0

====

- Tested on: Puccinia recondita f. sp. tritici
- Experiment: Test I: wheat leaf rust, preventive spray on wheat seedlings, visual disease rating
- Assay conditions: 192 h, read-out: Test I rating (% disease control)
This section presents molecules with their documented pest or weed control at 200 µg/mL values.
Reply with the number, then its unit.

Worked examples, 3 molecules total:
Cc1nn(C)c(Nc2c(F)cc(F)cc2F)c1-c1ccc(F)cc1F :: 100%
COc1cc(F)c(-c2c(C)nn(C)c2Nc2c(F)cc(F)cc2F)c(F)c1 :: 97%
COc1cc(F)c(Nc2c(-c3ccc(F)c(F)c3)c(C)nn2C)c(F)c1 :: 96%

Prompt: Please supply the value of reported pest or weed control at 200 µg/mL for the item COc1cc(F)c(-c2c(C)nn(C)c2Nc2ccc(F)cc2Cl)c(F)c1
Response: 99%

Prompt: Please supply the value of reported pest or weed control at 200 µg/mL for the item Cc1nn(C)c(Nc2c(F)cc(C#N)cc2F)c1-c1ccc(F)cc1Cl
Response: 100%

Prompt: Please supply the value of reported pest or weed control at 200 µg/mL for the item Cc1nn(C)c(Oc2cc(F)c(C#N)cc2F)c1-c1ccc(F)cc1Cl
Response: 100%

====

- Test system: Botrytis cinerea
- Experiment: Test B: tomato Botrytis, preventive spray on tomato seedlings, visual disease rating
- Assay conditions: tomato Botrytis; 100 = 100% disease control, 0 = no control relative to controls
Property label: Test B rating (% disease control) (%)
Provide only the numeric value, understood in %.

Worked examples, 10 molecules total:
CCN(c1c(F)cc(F)cc1F)c1c(-c2ccc(F)cc2Cl)c(C)nn1C :: 98
Cc1nn(C)c(Nc2ncc(F)cc2F)c1-c1c(F)cccc1Cl :: 100
Cc1nn(C)c(Nc2ccc(Cl)cc2Cl)c1-c1ccc(F)cc1F :: 100
Cc1nn(C)c(Nc2cc(F)ccc2F)c1-c1c(F)cccc1F :: 97
Cc1nn(C)c(Nc2cc(F)c(F)cc2F)c1-c1ccc(F)cc1F :: 99
Cc1nn(C)c(Nc2c(F)cc(F)cc2F)c1-c1c(F)cccc1C(F)(F)F :: 99
COc1ccc(Cl)c(-c2c(C)nn(C)c2Oc2c(F)cc(C#N)cc2F)c1 :: 100
COc1ccc(-c2c(C)nn(C)c2Nc2c(F)cccc2F)c(Cl)c1 :: 98
Cc1nn(C)c(Oc2c(F)cc(C#N)cc2F)c1-c1ccccc1Br :: 100
Cc1nn(C)c(Nc2ccc(F)cc2F)c1-c1ccccc1F :: 94

Prompt: Please supply the value of reported Test B rating (% disease control) for the item Cc1nn(C)c(Nc2c(F)cccc2F)c1-c1c(F)cccc1F
Response: 100

Prompt: Please supply the value of reported Test B rating (% disease control) for the item Cc1nn(C)c(Nc2c(F)cc(C#N)cc2F)c1-c1c(F)cccc1Cl
Response: 97

Prompt: Please supply the value of reported Test B rating (% disease control) for the item Cc1nn(C)c(Nc2ccc(Cl)cc2)c1-c1ccc(F)cc1F
Response: 100

Prompt: Please supply the value of reported Test B rating (% disease control) for the item COc1cc(F)c(Nc2c(-c3c(F)cccc3F)c(C)nn2C)c(F)c1
Response: 100

Prompt: Please supply the value of reported Test B rating (% disease control) for the item Cc1nn(C)c(Oc2cc(C#N)c(C#N)cc2Cl)c1-c1c(F)cc(F)cc1F
Response: 0

Prompt: Please supply the value of reported Test B rating (% disease control) for the item Cc1nn(C)c(Nc2ccc(F)cc2F)c1-c1ccccc1C(F)(F)F
Response: 99

Prompt: Please supply the value of reported Test B rating (% disease control) for the item COc1ccc(Cl)c(Nc2c(-c3ccc(F)cc3F)c(C)nn2C)c1
Response: 87

Prompt: Please supply the value of reported Test B rating (% disease control) for the item Cc1ccc(Oc2c(-c3c(F)cc(F)cc3F)c(C)nn2C)cc1F
Response: 33

Prompt: Please supply the value of reported Test B rating (% disease control) for the item Cc1nn(C)c(Nc2c(F)cc(F)cc2Cl)c1-c1c(F)cccc1Cl
Response: 100
